Examples of binders with documented Ki follow.
Molecular target: T1, human recombinant GIP receptor (human, UniProt P48546 22-466)
T1 construct: whole, on cells; Assayed as washed membranes of CHO-K1 cells expressing the receptor; also called hGIP receptor
T1 sequence (looked up): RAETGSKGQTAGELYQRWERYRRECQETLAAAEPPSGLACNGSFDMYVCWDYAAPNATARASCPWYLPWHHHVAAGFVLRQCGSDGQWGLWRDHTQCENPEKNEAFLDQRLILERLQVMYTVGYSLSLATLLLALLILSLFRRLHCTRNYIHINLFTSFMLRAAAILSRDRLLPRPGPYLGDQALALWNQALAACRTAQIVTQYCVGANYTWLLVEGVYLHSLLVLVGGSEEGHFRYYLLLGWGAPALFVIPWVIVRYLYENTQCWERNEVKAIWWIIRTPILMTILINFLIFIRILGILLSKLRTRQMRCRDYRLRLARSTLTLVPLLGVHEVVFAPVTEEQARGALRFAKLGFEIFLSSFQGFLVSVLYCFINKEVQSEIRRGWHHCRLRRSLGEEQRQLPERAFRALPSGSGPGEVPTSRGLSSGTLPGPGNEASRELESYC
Experiment: radioligand competition, [125I]GIP on membranes of CHO-K1 cells expressing human GIP receptor
Primed or numbered codes have the meaning given here. [ ]: non-standard residue; d: D form. The star is where a group is joined. Psu″ = N-propylsuccinimide on the Cys thiol (Cys(Psu)), CCCN1C(=O)CC(*)C1=O; Ac6c = NC1(C(=O)O)CCCCC1
Please don't drop the unit; write it after the number.

- FXSDYSIAMDKIHQQDFVNWLLAQKC (A6c at 7; Cys(Psu) at 31; hGIP numbering; C-terminal amide, Synthetic analogue of human GIP) [[A6c^7, Cys(Psu)^31]hGIP(6-31)-NH2]: 101 nM
- XSDYSIAMDKIHQQDFVNWLLAQKCKKN (N-terminal acetyl (Ac); A6c at 7; Cys(Psu) at 31; hGIP numbering; C-terminal amide, Synthetic analogue of human GIP) [(Ac-A6c^7, Cys(Psu)^31]hGIP(7-34)-NH2]: 115 nM

--- query ---
Lab note: measured Ki of Ac-[Ac6c]SDYSIAMDKIHQQDFVNWLLAQKGKKNDWKHC(Psu″)ITQ-OH (Synthetic analogue of human GIP) [[Ac-A6c^7, Cys(Psu)^39]hGIP(7-42)-OH] was 75.7 nM
